All values here come from paper doi:10.1101/2024.09.10.612331.

molecular target: ALX4 R215A;R216A (mouse cDNA (human protein sequence …, UniProt O35137 158-291, R203A;R204A)); assay: ITC
Sequence (O35137 158-291 R203A/R204A): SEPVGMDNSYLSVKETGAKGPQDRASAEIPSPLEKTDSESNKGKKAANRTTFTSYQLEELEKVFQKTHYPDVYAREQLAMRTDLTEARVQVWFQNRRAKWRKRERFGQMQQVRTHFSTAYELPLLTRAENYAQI
measurement-type: pKd
When answering, recall that pKd equals minus log10 of the concentration in mol/L, and write that number alone.

Reported pKd ( 14-mer monomer site ITC duplex (dsDNA) DNA 1: CGCTAATTAGCTCG DNA 2: CGAGCTAATTAGCG ) = 6.67
